Values from patent US20260256136A1

# EXPERIMENT: Storage test of aldehyde mixture containing 4-hydroxy-TEMPO with additive (Example 4)
# Type: physicochemical
# CONDITION_INFO: after 55° C. 14 days without cap; before test 1.05, without additive 6.14
Cut-off 2 on 16:Acid, inclusive. At or above means met; below means not met.

I'd appreciate it if you could say whether Nc1nnc(S)s1 [5-Amino-1,3,4-Thiadiazole-2-thiol] has 16:Acid at least equal to 2.
not met

Decide: is the reported value of 16:Acid for SC1=NCCS1 [2-thiazoline-2-thiol] equal to or greater than 2?
not met

Test whether the molecule [Na+].[O-][n+]1ccccc1[S-] [Sodium pyrithione] records 16:Acid of 2 or higher.
not met

Please tell me: is the molecule Cn1ccnc1S [2-mercapto-1-methylimidazole] at or over 2 in terms of 16:Acid?
not met

Given CC1(C)CC(O)CC(C)(C)N1[O] [Additive 4-OH-TEMPO] , state whether its 16:Acid is at least 2.
met

16:Acid >= 2 for Sc1nc2ccccc2[nH]1 [2-mercapto-Benzimidazole] ?
met

###

# EXPERIMENT: Accelerated storage test of aldehyde mixture with additive, 40 ppm Cu (Example 1)
# Assay type: physicochemical
# CONDITION_INFO: after 55° C. 14 days without cap, before test 4.3, blank 3.066023
PROPERTY_NAME: Z9-16:Ald

State its Z9-16:Ald: O=S1(=O)CCCC1 [Sulfolane]
3.077

Report Z9-16:Ald, nothing else, for this compound: [Na+].[OH-] [Sodium Hydroxide]
2.927

Using known records, supply Z9-16:Ald for Cc1ccc(O)c(-n2nc3ccccc3n2)c1 [Tinuvin P]
3.085

Item C[S+](C)[O-] [DMSO] : provide Z9-16:Ald
3.061

Look up and state reported Z9-16:Ald for CC(C)(C)c1cc(O)ccc1O [TBHQ]
3.367

Provide only the value of recorded Z9-16:Ald for Cc1cc(C(C)(C)C)c(O)c(C(C)(C)C)c1 [BHT]
3.425

Write down Z9-16:Ald measured for item Cc1c(C)c2c(c(C)c1O)CCC(C)(CCCC(C)CCCC(C)CCCC(C)C)O2 (racemic) [Tocopherol]
3.379

State its Z9-16:Ald for this compound: CCCOC(=O)c1cc(O)c(O)c(O)c1 [Propyl Gallate]
3.464

Report Z9-16:Ald for [Na+].[O-][n+]1ccccc1[S-] [Sodium pyrithione]
3.083

Please supply the value of reported Z9-16:Ald for the item CN(C)CCO [Dimethylethanolamine]
0

Please supply the value of reported Z9-16:Ald for the item CC1(C)CC(OC(=O)CCCCCCCCC(=O)OC2CC(C)(C)NC(C)(C)C2)CC(C)(C)N1 [Tinuvin 770]
3.135

###

# EXPERIMENT: Accelerated storage test of aldehyde mixture with additive, 40 ppm Cu (Example 1)
# Assay type: physicochemical
# CONDITION_INFO: after 55° C. 14 days without cap, before test 69.4, blank 54.83784, in % (unit assumed)
PROPERTY_NAME: Z11-16Ald
Would you mind answering with just the numeric figure?

Answer with the recorded Z11-16Ald for the molecule listed here: C[S+](C)[O-]
55.24

For CN(C)CCO , write its Z11-16Ald.
8.128

Quote Z11-16Ald reported for Cc1c(C)c2c(c(C)c1O)CCC(C)(CCCC(C)CCCC(C)CCCC(C)C)O2 (racemic) please.
54.67

Consider the molecule COc1ccc(O)c(C(C)(C)C)c1 . State its measured Z11-16Ald.
59.48

Identify Z11-16Ald associated with the molecule CC(C)(C)c1cc(O)ccc1O
53.69

Read off the recorded Z11-16Ald for Cc1cc(-n2nc3ccc(Cl)cc3n2)c(O)c(C(C)(C)C)c1
52.4909

Return Z11-16Ald (reported value) for this molecule: Cc1ccc(O)c(-n2nc3ccccc3n2)c1
54.35

Give Z11-16Ald for [Na+].[O-][n+]1ccccc1[S-] [Sodium pyrithione]
57.02
